system under test: α-glucosidase (Saccharomyces cerevisiae, UniProt P53341)
Sequence (P53341 whole entry): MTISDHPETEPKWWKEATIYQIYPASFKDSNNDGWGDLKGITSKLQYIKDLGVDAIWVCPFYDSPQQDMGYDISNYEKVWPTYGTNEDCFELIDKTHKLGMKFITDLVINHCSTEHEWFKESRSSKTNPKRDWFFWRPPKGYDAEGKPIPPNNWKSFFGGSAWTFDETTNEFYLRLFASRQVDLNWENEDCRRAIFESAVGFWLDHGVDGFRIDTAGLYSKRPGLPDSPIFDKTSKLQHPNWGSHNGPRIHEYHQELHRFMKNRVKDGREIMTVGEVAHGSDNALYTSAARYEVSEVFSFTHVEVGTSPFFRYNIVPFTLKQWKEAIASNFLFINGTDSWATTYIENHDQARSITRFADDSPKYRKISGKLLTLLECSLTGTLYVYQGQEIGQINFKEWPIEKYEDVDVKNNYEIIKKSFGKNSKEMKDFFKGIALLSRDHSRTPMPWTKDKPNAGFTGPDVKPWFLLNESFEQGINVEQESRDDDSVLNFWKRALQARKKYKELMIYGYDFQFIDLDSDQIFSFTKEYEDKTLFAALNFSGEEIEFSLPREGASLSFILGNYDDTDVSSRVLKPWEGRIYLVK
assay details: α-Glucosidase inhibitory assay (p-NPG substrate)
condition summary: read-out: α-glucosidase inhibitory activity 750 μM (%)
measure: inhibition at 750 µM (%)

Below, each entry is followed by its recorded inhibition at 750 µM result.
compound: CC1CCC2C13CCC(C3)C(O)(CO)C2(C)C (centres unmarked)
inhibition at 750 µM / %: 49.9
//
compound: CC1=C2CCC(CO)C23CCC(C3)C1(C)C (centres unmarked)
inhibition at 750 µM / %: 92.1

I = C=C1C2CCC3(C(CO)CCC3C1(C)C)C2O (centres unmarked)
II = CC1CCC2C(C)(C)C(CO)C3CCC12C3 (centres unmarked)
Of the pair I and II , name the member with the lesser recorded inhibition at 750 µM. Pick one; state its label.
I

###

system under test: α-glucosidase (Saccharomyces cerevisiae, UniProt P53341)
assay details: α-Glucosidase inhibitory assay (p-NPG substrate)
condition summary: read-out: α-glucosidase inhibitory activity 750 μM (%)
measure: inhibition at 750 µM (%)

Below, each entry is followed by its recorded inhibition at 750 µM result.
compound: CC1CCC2C13CCC(C3)C(C)(O)C2(C)C (stereo not shown) [Compound 7, Jinkohol I]
value reported: 86.9

compound: CC1CCC2C(C)(C)C(C(=O)O)C3CCC12C3 (stereo not shown) [Compound 9, Jinkoholic acid]
value reported: 48.9

a = CC1CCC2C(C)(C)C(CO)C3(O)CCC12C3 (stereo not shown) [Compound 2, Agarozizanol B]
b = CC1=C2CCC(C)C23CCC(C3)C1(C)CO (stereo not shown) [Compound 5, Agarozizanol E]
Between these two entries, a and b , state which has the higher inhibition at 750 µM. Pick one; state its label.
b

###

Item-by-item account of inhibition at 100 µM
system under test: UniProtKB C7FF04
Sequence (C7FF04 1-392): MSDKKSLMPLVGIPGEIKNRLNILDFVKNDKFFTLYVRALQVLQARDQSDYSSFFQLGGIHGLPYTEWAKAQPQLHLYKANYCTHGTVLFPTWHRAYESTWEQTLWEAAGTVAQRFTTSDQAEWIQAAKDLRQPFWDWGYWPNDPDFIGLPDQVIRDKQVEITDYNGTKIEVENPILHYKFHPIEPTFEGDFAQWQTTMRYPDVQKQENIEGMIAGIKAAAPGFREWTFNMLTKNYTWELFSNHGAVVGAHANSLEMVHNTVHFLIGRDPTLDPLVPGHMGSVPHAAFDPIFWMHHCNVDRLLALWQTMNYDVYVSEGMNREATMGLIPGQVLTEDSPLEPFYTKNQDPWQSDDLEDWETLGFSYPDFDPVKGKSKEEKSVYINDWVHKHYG
assay details: Tyrosinase inhibitory assay (L-tyrosine substrate)
condition summary: read-out: tyrosinase inhibitory activity 100 μM (%)

Below, each entry is followed by its recorded inhibition at 100 µM result.
compound: CC1CCC2C13CCC(C3O)C(C)(O)C2(C)C (stereo not shown)
inhibition at 100 µM: < 30%
//
compound: COc1ccc(CCc2cc(=O)c3cc(O)cc(O)c3o2)cc1
inhibition at 100 µM: 65%
//
compound: CC1=C2CCC(CO)C23CCC(C3)C1(C)C (stereo not shown)
inhibition at 100 µM: < 30%
//
compound: COc1ccc(CCc2cc(=O)c3cc(O)c(OC)cc3o2)cc1O
inhibition at 100 µM: 53.4%
//
compound: COc1ccc(CCc2cc(=O)c3cc(OC)c(O)cc3o2)cc1O
inhibition at 100 µM: < 30%

Quick check: inhibition at 100 µM on UniProtKB C7FF04, item CC1CCC2C(C)(C)C(CO)C3(O)CCC12C3 (stereo not shown) ?
< 30%

Quick check: inhibition at 100 µM on UniProtKB C7FF04, item CC1CCC2C13CCC(C3)C(O)(CO)C2(C)C (stereo not shown) ?
< 30%

Quick check: inhibition at 100 µM on UniProtKB C7FF04, item CC1CCC2C(C)(C)C(C(=O)O)C3CCC12C3 (stereo not shown) ?
< 30%

Quick check: inhibition at 100 µM on UniProtKB C7FF04, item CC1=C2C(O)CC(CO)C23CCC(C3)C1(C)C (stereo not shown) ?
< 30%

Quick check: inhibition at 100 µM on UniProtKB C7FF04, item CC1CCC2C13CCC(C3)C(C)(O)C2(C)C (stereo not shown) ?
< 30%

// data source = paper PMC6495113
